Assay: qHTS assay to test for compound auto fluorescence at 590 nm (red) in HEK293 cell free culture (AID 720683); also: % is scaled to controls: 0 for no effect and ±100 for the full control effect
Conditions: cell-free medium autofluorescence, Ex540/Em590 red; series mostly up to 91.3 µM
Activity calls are given as the source filed them. Calls follow the shape of the dose curve; as a rule, active = well fitted curve in the direction sought with a large enough effect in the repeat runs; inconclusive = weak or mixed curves; inactive = flat fitted curve, though single readings scatter.
Measured Endpoint: fluorescence, % of fluorescent control

Solved cases (7 shown):
- Compound: "N=C(N)[Se]"
  fluorescence, % of fluorescent control: "inactive"
- Compound: "O=P(O)(O)c1ccccc1"
  fluorescence, % of fluorescent control: "inactive"
- Compound: "NCC1(CC(=O)O)CCCCC1"
  fluorescence, % of fluorescent control: "0.0512% [at 18.6 µM] (inactive)"
- Compound: "CCC1(c2cccc(O)c2)CCCCN(C)C1 (stereo not drawn)"
  fluorescence, % of fluorescent control: "0.0544% [at 18.6 µM] (inactive)"
- Compound: "CCCCCCCCSC(=O)Oc1cc(Cl)nnc1-c1ccccc1"
  fluorescence, % of fluorescent control: "inactive"
- Compound: "CC(C)C(C)(N)C#N (stereo not drawn)"
  fluorescence, % of fluorescent control: "inactive"
- Compound: "C=CC(=O)OCCN(C)C"
  fluorescence, % of fluorescent control: "inactive"

Prompt: Value lookup for fluorescence, % of fluorescent control; key = NC(=O)CS(=O)C(c1ccccc1)c1ccccc1 (stereo not drawn)
Response: inactive
